# cAMP EC50 per record follows
Target: T1, mouse GIP receptor (mouse, UniProt Q0P543 19-460)
T1 sequence (looked up): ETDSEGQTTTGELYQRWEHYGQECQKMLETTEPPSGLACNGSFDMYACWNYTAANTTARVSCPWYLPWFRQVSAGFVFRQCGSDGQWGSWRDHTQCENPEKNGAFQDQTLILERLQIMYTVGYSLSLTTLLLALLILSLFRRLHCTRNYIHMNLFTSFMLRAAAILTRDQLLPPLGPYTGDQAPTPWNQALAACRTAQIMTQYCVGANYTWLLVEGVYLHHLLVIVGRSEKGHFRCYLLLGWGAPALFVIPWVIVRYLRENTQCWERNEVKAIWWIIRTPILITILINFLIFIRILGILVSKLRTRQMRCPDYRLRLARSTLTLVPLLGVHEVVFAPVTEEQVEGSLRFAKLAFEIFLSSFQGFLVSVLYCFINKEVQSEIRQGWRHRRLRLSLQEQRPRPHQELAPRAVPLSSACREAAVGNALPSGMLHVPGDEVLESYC
Assay: cell-based or functional assay
readoutLabel: cAMP EC50 (nM)

INSERT INTO assay_data (binder, readoutlabel, value) VALUES
  ('IP259 (Fc fusion) YSEGTFTSDYSKLLEKEAVRLFIEWLVKGPGGGGGSGGGGSGGGGSGGGGSATHTCPPCPAPEF', 'cAMP EC50', 12),
  ('IP212 (Fc fusion) YSEGTFTSDYSKLLEEEAVREFIAWLVKGPAAAGGSGSTASSGSGSATGGGGAATHTCPPCPAPEF', 'cAMP EC50', 190),
  ('IP322 (Fc fusion) YSEGTFTSDYSKLLEEEAVRLFIEWLVKGPGGGGGSGGGGSGGGGSGGGGSGGGGSA', 'cAMP EC50', 8.3),
  ('IP383 (Fc fusion) YSEGTFTSLYRILLEEEAVRLFIEWLLAGGGGGGSGGGGSGGGGSGGGGSATHTCPPC', 'cAMP EC50', 46.7),
  ('IP088 (Fc fusion) YSEGTFTSDYSKLLEEEAVRLFIEWLVKGPAAAGGSGSTASSGSGSATGGGGAATHTCPPCPAPEF', 'cAMP EC50', 86),
  ('IP325 (Fc fusion) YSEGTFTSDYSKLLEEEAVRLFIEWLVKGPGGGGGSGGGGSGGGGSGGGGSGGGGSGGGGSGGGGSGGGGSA', 'cAMP EC50', 170),
  ('IP416 (Fc fusion) YSEGTFTSDYSKLLEEEAVRLFIEWLLAGGGSGGGGSGGGGSGGGGSGGGGSGGGGSGGGGSGGGGSACPPC', 'cAMP EC50', 1.1),
  ('IP328 (Fc fusion) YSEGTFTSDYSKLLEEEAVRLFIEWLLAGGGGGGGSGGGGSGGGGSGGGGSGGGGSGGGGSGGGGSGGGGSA', 'cAMP EC50', 5.4),
  ('IP280 (Fc fusion) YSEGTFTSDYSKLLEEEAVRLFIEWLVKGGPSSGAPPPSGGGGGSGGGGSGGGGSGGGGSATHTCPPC', 'cAMP EC50', 8.8),
  ('IP358 (Fc fusion) YSEGTFTSDFSKLLEEEAVRLFIEWLLAGGGGGGSGGGGSGGGGSGGGGSATHTCPPC', 'cAMP EC50', 12),
  ('IP355 (Fc fusion) YSEGTHTSLFSKLLEEEAVRLFIEWLLAGGGGGGSGGGGSGGGGSGGGGSATHTCPPC', 'cAMP EC50', 17);
